The reported numbers originate from patent US20160297761A1.

Recorded inhibition at 1 µM by entry
# Test system: L-glutaminase present in mice brain homogenate (Glutaminase(Brain)) (Mus musculus, UniProt D3Z7P3)
# Sequence (D3Z7P3 55-674): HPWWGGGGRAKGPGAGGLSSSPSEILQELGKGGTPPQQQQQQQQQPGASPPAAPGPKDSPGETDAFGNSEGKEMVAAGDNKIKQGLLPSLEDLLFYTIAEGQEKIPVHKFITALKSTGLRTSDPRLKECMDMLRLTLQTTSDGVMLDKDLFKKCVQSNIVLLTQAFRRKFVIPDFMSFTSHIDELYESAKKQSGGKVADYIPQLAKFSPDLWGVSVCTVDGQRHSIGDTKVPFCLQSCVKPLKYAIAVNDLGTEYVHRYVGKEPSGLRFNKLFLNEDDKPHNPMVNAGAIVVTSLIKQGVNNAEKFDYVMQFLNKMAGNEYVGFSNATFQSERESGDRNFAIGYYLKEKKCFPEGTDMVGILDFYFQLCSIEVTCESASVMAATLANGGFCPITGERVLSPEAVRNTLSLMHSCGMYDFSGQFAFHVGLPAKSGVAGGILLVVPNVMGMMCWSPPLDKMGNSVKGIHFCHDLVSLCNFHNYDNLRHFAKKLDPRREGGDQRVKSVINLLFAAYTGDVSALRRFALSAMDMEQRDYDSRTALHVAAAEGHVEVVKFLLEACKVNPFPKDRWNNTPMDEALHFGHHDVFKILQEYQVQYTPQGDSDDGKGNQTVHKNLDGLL
# Method summary: Glutaminase enzyme activity using glutaminase enzyme from mice brain/kidney homogenate (Nessler's reagent, ammonia)
# Assay type: biochemical
# Test conditions: 1 μM; mice brain homogenate; read-out: Glutaminase(Brain) activity % inhibition @1 μM
# Method: Assay 3: Determination of Glutaminase Enzyme Activity Using Glutaminase Enzyme from Mice Brain/Kidney Step 1: Preparation of Tissue Homogenates: Male Balb/c mice were administered 0.28 M ammonium chloride in drinking water for 7 days. The animals were sacrificed and brain/kidney organs collected on dry ice. […] Aim: Compounds were assessed for their ability to inhibit the enzymatic activity of L-glutaminase present in mice brain/kidney homogenate. […]

These recorded examples may help you get a feel for the data.
{"Molecule": "O=C(Cc1ccccn1)Nc1nnc(CCCCc2ccc(NC(=O)Cc3cccc(OC(F)(F)F)c3)c(F)c2)s1", "inhibition at 1 µM": "< 25%"}
{"Molecule": "O=C(Cc1cccc(OC(F)(F)F)c1)Nc1ccc(CCCCc2nnc(NC(=O)Cc3ccccn3)s2)c(F)n1", "inhibition at 1 µM": "75 to 100%"}

Given item "O=C(Cc1cccc(OC(F)(F)F)c1)Nc1ccc(CCCCc2nnc(NC(=O)Cn3cccn3)s2)cn1" , the value recorded as its inhibition at 1 µM is 50 to 75%

Given item "O=C(Cc1cccc(OC(F)(F)F)c1)Nc1ncc(CCCCc2nnc(NC(=O)Cc3ccccn3)s2)cn1" , the value recorded as its inhibition at 1 µM is 25 to 50%

Given item O=C(Cc1cccc(OC(F)(F)F)c1)Nc1nnc(CC2CCC(Cc3nnc(NC(=O)Cc4ccccn4)s3)CC2)s1 (stereo not shown) , the value recorded as its inhibition at 1 µM is < 25%

Given item "CC(C)(C)OC(=O)N1CCC(c2ccc(CC(=O)Nc3nnc(CCCCc4ccc(NC(=O)Cc5cccc(OC(F)(F)F)c5)nc4)s3)cc2)CC1" , the value recorded as its inhibition at 1 µM is 25 to 50%

Given item "O=C(Cc1ccccn1)Nc1ccc(CCCCc2nnc(NC(=O)Cc3cccc(OC(F)(F)F)c3)s2)cn1" , the value recorded as its inhibition at 1 µM is 50 to 75%

* * *

Recorded melting point by entry

{"Compound": "O=C(Cc1cccc(OC(F)(F)F)c1)Nc1ccc(CCCCc2ccc(NC(=O)Cc3cccc(OC(F)(F)F)c3)nc2)cn1", "Measured value": "153 to 155 °C"}
{"Compound": "O=C(Cc1cccc(OC(F)(F)F)c1)Nc1ccc(CCCCc2nnc(NC(=O)Cc3cccnc3)s2)cn1", "Measured value": "176 to 178 °C"}
{"Compound": "O=C(Cc1cccc(OC(F)(F)F)c1)Nc1nnc(CC2CCC(Cc3nnc(NC(=O)Cc4cccc(OC(F)(F)F)c4)s3)CC2)s1 (stereo not shown)", "Measured value": "240 to 244 °C"}
{"Compound": "O=C(Cc1cccnc1)Nc1nnc(CCCCc2ccc(NC(=O)Cc3cccc(OC(F)(F)F)c3)c(F)c2)s1", "Measured value": "176 to 180 °C"}
{"Compound": "O=C(Cc1ccccn1)Nc1nnc(CCCCc2ccc(NC(=O)Cc3cccc(OC(F)(F)F)c3)c(F)c2)s1", "Measured value": "164 to 168 °C"}

Given item O=C(Cc1ccccc1)Nc1nnc(C2CCC(c3nnc(NC(=O)Cc4ccccc4)s3)CC2)s1 (stereo not shown) , the value recorded as its melting point is 281 to 283 °C

Given item O=C(Cc1cccnc1)Nc1nnc(C2CCC(c3nnc(NC(=O)Cc4cccnc4)s3)CC2)s1 (stereo not shown) , the value recorded as its melting point is 180 to 182 °C
